Where do the numbers come from? From PubChem BioAssay (NCI).

For each entry below, report its growth value.
system: MCF7 breast; assay: NCI-60 one-dose screen, 48 h (100 = growth as untreated, 0 = no growth, -100 = all killed); conditions: 10 µM unless noted
The panel holds about 83,000 compounds, 20% with a hit somewhere; the sample as a whole holds those more often.
Just the number please, in %, no unit attached.

Given the entry O=c1n(CC2CO2)c(=O)n(CC2CO2)n1CC1CO1 (stereo not drawn) , what growth was observed with MCF7 breast?
31

# query: growth | item CC1CCC(C)(C)c2ccccc21 (stereo not drawn) | system: MCF7 breast
91.4

# value lookup — system MCF7 breast, readout growth, item CCOC(=O)/C(O)=C(\C=N\C(=S)Nc1ccc(Cl)c(Cl)c1)C(=O)OCC
81

// lookup growth | system=MCF7 breast | key= Nc1ccn(C2CC(N)C(CO)O2)c(=O)n1 (stereo not drawn)
66.5

Test system MCF7 breast; read-out growth; what value for NC(=O)OCCO ?
92.9

State its growth on MCF7 breast: CCOC(=O)/C(C#N)=C\c1c[nH]c2ccccc12
77

Provide value of growth for this record tested with MCF7 breast: CC(=O)NCNC(C)=O
94

Record CN1CCCN(C(c2ccccc2)c2ccc(Br)cc2)CC1 (stereo not drawn) : what is its growth with MCF7 breast?
37.5

What is its growth for MCF7 breast? Entry: O=C(Nc1ccc([N+](=O)[O-])cc1)C(=O)Nc1ccc([N+](=O)[O-])cc1
90.6

# query: growth | item OC(CCN1CCCCC1)(c1ccccc1)c1ccccc1 | system: MCF7 breast
97.9

Param readout = growth; param system = MCF7 breast; param query = C=C1C(=O)C2CCN1CC2 ; response: value
94.3

MCF7 breast / growth / O=C1NC(=O)C(c2ccccc2)O1 (stereo not drawn) : value?
105

Return growth measured with MCF7 breast given this compound: CC1(C)OC2C(CO)OC(n3ccc(=O)[nH]c3=O)C2O1 (stereo not drawn)
97.7
